- Tested on: Yap1 mRNA
- assay-method-text: Antisense inhibition of human Yap1 in SNU-449 cells by modified oligonucleotides, single dose (Example 5, RTS36584)
- Type: cell-based
- condition-info: Table 44 experiment; SNU-449 cells, 10,000 cells per well, free uptake, 2,000 nM, approximately 48 hours; RTS36584; Yap1 mRNA normalized to RIBOGREEN, relative to untreated control cells
Strand notation (5' to 3'): a small letter for the sugar, then the base; units joined by * are phosphorothioate-linked, units joined directly phosphodiester-linked; [ ] holds rarer units or linkages, { } end groups; capitals alone tell only the bases. e = 2'-O-(2-methoxyethyl) (MOE); k = constrained ethyl (cEt); [5mC] = 5-methylcytosine; d = 2'-deoxy (DNA)
Classify by measured YAP1 (% UTC): MET if it is equal to or exceeds 30 % UTC, NOT MET if it is smaller.

>>> assigned_class("1198474 (antisense kT*kA*dT*dA*dA*d[5mC]*dT*dG*dG*dG*d[5mC]*eA*kA*eA*kT*eT) [Compound 1198474]")
"MET"

Query: Has 1198488 (antisense kG*kG*dA*dA*dG*dA*dT*d[5mC]*dT*dG*dA*eA*kA*e[5mC]*kT*e[5mC]) [Compound 1198488] a recorded YAP1 (% UTC) greater than or equal to 30 % UTC?
Result: MET

Query: Field entry: 1198492 (antisense kG*k[5mC]*dT*dT*dT*dG*dG*dA*dA*dG*dA*eT*k[5mC]*eT*kG*eA) [Compound 1198492]
Result: NOT MET

Query: Subsequent entry: 1198533 (kT*kA*dA*dG*dG*dT*dT*dT*d[5mC]*d[5mC]*d[5mC]*eA*kG*eA*kT*eT; antisense) [Compound 1198533]
Result: MET

Origin of values: patent US11214803B2
